half-life values by entry
Assay: Half life was measured as time taken to reach the half of the initial dose in the blood after oral administration to male F344 rats
Assay type: ADME, organism-based
Conditions: F344, rat
Measured Quantity: half-life (min)

compound_structure=CCc1cccc2c(/C=C(\C)C(=O)O)cc(OC)c(O)c12 measured_quantity=half-life result_number=26.4
compound_structure=CCc1cccc2c(/C=C(/C)C(=O)O)cc(OC)c(O)c12 measured_quantity=half-life result_number=103
compound_structure=CCCc1cccc2c(/C=C(\C)C(=O)O)cc(OC)c(O)c12 measured_quantity=half-life result_number=64.2

----------
Experiment: Half life was measured as time taken to reach the half of the initial dose in air pouch exudate
Type: ADME
Measured Quantity: half-life

compound_structure=CCCc1cccc2c(/C=C(/C)C(=O)O)cc(OC)c(O)c12 result="2.05 h"

----------
Assay: C6h was measured as concentration obtained after 6 hr of oral administration in air pouch exudate
Format: ADME
Conditions: read-out: C6h
Measured Quantity: concentration at 6 h (ng/mL)

compound_structure=CCCc1cccc2c(/C=C(/C)C(=O)O)cc(OC)c(O)c12 result_number=1940

----------
Experiment: Half life was measured as time taken to reach the half of the initial dose in air pouch exudate after oral administration to male F344 rats
Assay type: ADME, organism-based
Details: F344, rat
Measured Quantity: half-life (h)

compound_structure=CCc1cccc2c(/C=C(/C)C(=O)O)cc(OC)c(O)c12 unit_symbol=h result_number=4.15

----------
Experiment: Half life was measured as time taken to reach the half of the initial dose in the blood
Format: ADME, tissue-based
Measured Quantity: half-life (h)

compound_structure=CCCc1cccc2c(/C=C(/C)C(=O)O)cc(OC)c(O)c12 result_number=1.07

----------
Experiment: Area under curve was measured from the graph obtained from concentration Vs time after oral administration to male F344 rats
Assay type: ADME, organism-based
Conditions: F344, rat, in vivo
Measured Quantity: AUC (µg·h/mL)

compound_structure=CCc1cccc2c(/C=C(/C)C(=O)O)cc(OC)c(O)c12 result_number=418
compound_structure=CCc1cccc2c(/C=C(\C)C(=O)O)cc(OC)c(O)c12 result_number=108
compound_structure=CCCc1cccc2c(/C=C(\C)C(=O)O)cc(OC)c(O)c12 result_number=60.4

----------
Assay: C6h was measured as concentration obtained after 6 hr of oral administration in air pouch exudate after oral administration to male F344 rats
Format: ADME, organism-based
Conditions: F344, rat, read-out: C6h
Measured Quantity: concentration at 6 h (µg/mL)

compound_structure=CCc1cccc2c(/C=C(/C)C(=O)O)cc(OC)c(O)c12 unit_symbol=µg/mL result_number=8.76
